- target.system: Transcriptional activator protein LuxR (Aliivibrio fischeri) (UniProt P12746)
- assay.text: Agonist activity at Vibrio fischeri LuxR assessed as activation of quorum sensing activation mediated bioluminescence
- Format: functional
The source made the active and inactive calls. The rule behind the calls is not given here.
measurement.kind: Activity

Answered examples (5):
CCCCCCCCCCCCCCCCCCn1cc[n+](C2CCCC2)c1 :: inactive
CCCCCCCCn1cc[n+](C2CCCC2)c1 :: inactive
CCCCCCCCCCn1cc[n+](C2c3ccccc3-c3ccccc32)c1 :: inactive
CCCCCCCCCCCCCCCCn1cc[n+](C2c3ccccc3-c3ccccc32)c1 :: inactive
CCCCCCCCCCn1cc[n+](C2CCCC2)c1 :: inactive

# query: Activity of entry "CCCCCCCCn1cc[n+](C(c2ccc(Cl)cc2)c2ccc(Cl)cc2)c1"
inactive

Which Activity is reported for this compound? "CCCCCCn1cc[n+](C(c2ccc(Cl)cc2)c2ccc(Cl)cc2)c1"
inactive

Please look up its Activity: "CCCCCCCCCCn1cc[n+](C(c2ccc(Cl)cc2)c2ccc(Cl)cc2)c1"
inactive

###

- target.system: Transcriptional activator protein LuxR (Aliivibrio fischeri) (UniProt P12746)
- Sequence (whole entry): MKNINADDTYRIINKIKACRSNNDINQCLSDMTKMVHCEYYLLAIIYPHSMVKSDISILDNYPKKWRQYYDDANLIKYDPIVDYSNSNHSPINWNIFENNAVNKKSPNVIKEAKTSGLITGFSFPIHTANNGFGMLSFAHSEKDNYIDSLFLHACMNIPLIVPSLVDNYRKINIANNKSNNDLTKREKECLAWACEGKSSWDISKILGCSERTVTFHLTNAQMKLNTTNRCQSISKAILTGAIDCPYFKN
- assay.text: Agonist activity at Vibrio fischeri LuxR assessed as activation of quorum sensing activation mediated bioluminescence
- Format: functional
The source made the active and inactive calls. The calls are words filed in the database; no cut-off is given here.
measurement.kind: Activity

CCCCCCCCCCCCn1cc[n+](C(c2ccc(Cl)cc2Cl)c2ccc(Cl)cc2Cl)c1 :: inactive
CCCCCCCCCCCCn1cc[n+](C2c3ccccc3-c3ccccc32)c1 :: inactive
CCCCCCCCn1cc[n+](C(c2ccccc2)c2ccccc2)c1 :: inactive
CCCCCCCCCCCCn1cc[n+](C(c2ccccc2)c2ccccc2)c1 :: inactive

Recorded Activity of "CCCCCCn1cc[n+](C(c2ccccc2)c2ccccc2)c1" , please.
inactive

Quick one: Activity of "CCCCCCCCCCCCCCCCCCn1cc[n+](C(c2ccc(Cl)cc2Cl)c2ccc(Cl)cc2Cl)c1.[Br-]" ?
inactive

Give its Activity value. Item: "CCCCCCCCCCn1cc[n+](C(c2ccccc2)c2ccccc2)c1"
inactive

Looking for the measured Activity of "CCCCCCCCCCCCCCn1cc[n+](C(c2ccccc2)c2ccccc2)c1" , can you help?
inactive

If you can, please state the reported Activity value of "CCCCCCCCCCCCCCCCn1cc[n+](C2CCCC2)c1" .
inactive

What Activity value was documented for this compound, "CCCCCCn1cc[n+](C(c2ccc(Cl)cc2Cl)c2ccc(Cl)cc2Cl)c1" ?
inactive

Given the entry "CCCCCCCCn1cc[n+](C(c2ccc(Cl)cc2Cl)c2ccc(Cl)cc2Cl)c1" , report its measured Activity.
inactive

Endpoint output: Activity of "CCCCCCCCn1cc[n+](C2c3ccccc3-c3ccccc32)c1" . Value?
inactive

Reported Activity, compound "CCCCCCCCCCCCCCCCCCn1cc[n+](C(c2ccc(Cl)cc2)c2ccc(Cl)cc2)c1.[Br-]" : ____
inactive

# Activity lookup, item "CCCCCCCCCCCCn1cc[n+](C2CCCC2)c1"
inactive

Look up Activity for this compound: "CCCCCCCCCCCCn1cc[n+](C(c2ccc(Cl)cc2)c2ccc(Cl)cc2)c1"
inactive

Look up Activity for this compound: "CCCCCCCCCCCCCCn1cc[n+](C2c3ccccc3-c3ccccc32)c1"
inactive
